So I've got a bunch of compounds here, and I need their IC50 values.
# System: HIV (strain NL4-3)
# ASSAY_COMMENT: HIV cell based assay (Level 1 / Level 2 Screen; CFAR assay): 293T transfection, TZM-bl infection, luciferase
# Parameters: species or system HIV-1
# CONDITION_SUMMARY: Human immunodeficiency virus 1, NL43, read-out: IC 50 (units)
Report the value in µM with no unit label.

Given item CC(C)c1ccc(OCC(=O)N2C(C)CCCC2C)c(Br)c1 (centres unmarked) [Compound 1668-1] , the value recorded as its IC50 is 34

Given item c1ccc(Nc2nc(Nc3ccccc3)nc(N3CCNCC3)n2)cc1 [Compound 8391-6] , the value recorded as its IC50 is 5.3

----------
# TEST_SYSTEM: hASL3^Lys-mcm^5s^2U34;ms^2t^6A37;Ψ39
# ASSAY_COMMENT: Fluorescence quenching binding of P6 / NCp7 to fully modified hASL3^Lys
# Set-up: species or system human
# CONDITION_SUMMARY: FIGS. 5 and 6
# Source text: […]
RESULT_TYPE: pKd
Give only the number. pKd is defined as minus log10 of concentration in molar units.

Given item RVTHHAFLGAHRTVG [Compound P6] , the value recorded as its pKd is 6.35

----------
# System: HIV (strain NL4-3)
# ASSAY_COMMENT: HIV cell based assay (Level 1 / Level 2 Screen; CFAR assay): 293T transfection, TZM-bl infection, luciferase
# Design: species or system HIV-1
# CONDITION_SUMMARY: Human immunodeficiency virus 1, NL43; isoquinoline table; assay not given, value lies in the CFAR range of b151; read-out: IC 50
RESULT_TYPE: IC50 (µM)
Report the value in µM with no unit label.

Sample COc1cc2c(cc1OC)C1=C(C#N)CC/C(=N\C(=O)c3ccc(Cl)cc3)N1CC2 , system: HIV (strain NL4-3). Its IC50 is 14
